Data credit: patent US11241393B2

Readings of CC50 for the listed compounds
Assay: in vitro
Conditions: cattle
Recorded metric: CC50

{"Compound": "CCCCCCCCCCCC[Si](C)(C)CCOC1OC(CO)C(O)C(O)C1O (centres unmarked) [Sil 3]", "Measured result": "< 20 µM"}
{"Compound": "CCCCCCCCCC[Si](C)(C)CCOC1OC(CO)C(O)C(O)C1O (centres unmarked) [Sil 2]", "Measured result": "< 20 µM"}

* * *

Quick reference for CC50 among some molecules
Assay: in vitro

{"Molecule": "CCCCCCCCCCCC(=O)O[Si](OC(=O)CCCCCCCCCCC)(c1ccccc1)c1ccccc1", "CC50": "< 20 µM"}
{"Molecule": "CCCCCCCCCC[Si](C)(C)CCOC1OC(CO)C(O)C(O)C1O (stereo not drawn)", "CC50": "< 20 µM"}
{"Molecule": "CCCCCCCCCCCC[Si](C)(C)CCOC1OC(CO)C(O)C(O)C1O (stereo not drawn)", "CC50": "< 20 µM"}

* * *

Listed compounds paired with reported CC50
Test system: MDCK cells
Settings: dog
Recorded metric: CC50 (µM)

{"Compound": "CCCCCCCCCC[Si](C)(C)CCOC1OC(CO)C(O)C(O)C1O (centres unmarked) [Sil 2]", "Recorded metric": "CC50", "Quantity unit": "µM", "Measured result": 18}
{"Compound": "CCCCCCCCCCCC[Si](C)(C)CCOC1OC(CO)C(O)C(O)C1O (centres unmarked) [Sil 3]", "Recorded metric": "CC50", "Quantity unit": "µM", "Measured result": 19.2}

* * *

Experiment: in vitro
Conditions: dog
Recorded metric: log10 CC50 (log10 of the value in µM)

{"Compound": "CCCCCCCCCCC(=O)O[Si](C)(C)OC(=O)CCCCCCCCCC [Sil 34, Di(undecanoyloxy)dimethylsilane]", "Measured result": 3.40}
{"Compound": "CCCC[Si](C)(C)OC1OC(CO)C(O)C(O)C1O [Sil 7, Butyldimethylsilyl-a-D-galactopyranoside]", "Measured result": 2.65}
{"Compound": "CCCCCCCCCCCC(=O)O[Si](OC(=O)CCCCCCCCCCC)(c1ccccc1)c1ccccc1 [Sil 25, Di(dodecanoyloxy)diphenylsilane]", "Measured result": 1.75}
{"Compound": "CCCCCCCCCCCCCCCC(=O)O[Si](OC(=O)CCCCCCCCCCCCCCC)(c1ccccc1)c1ccccc1 [Sil 27, Di(hexadecanoyloxy)diphenylsilane]", "Measured result": 2.50}
{"Compound": "CC(N)C12CC3CC(CC(C3)C1)C2 (centres unmarked) [Rimantadine, reference compound]", "Measured result": 1.97}
{"Compound": "CCCCCCCCCCCC[Si](C)(C)OC1OC(CO)C(O)C(O)C1O [Sil 9, Dodecyldimethylsilyl-a-D-glucopyranoside]", "Measured result": 2.65}

* * *

Parameter IC50: see the listing below.
Test system: influenza virus A/Aichi/2/68 (H3N2)
Test: organism not typed
Assay type: cell-based
Conditions: MDCK
Recorded metric: IC50

{"Compound": "CCCCCCCCCCCC[Si](C)(C)CCOC1OC(CO)C(O)C(O)C1O (stereo not shown)", "Measured result": "6.6 µM"}
{"Compound": "CCCCCCCCCCCC(=O)O[Si](OC(=O)CCCCCCCCCCC)(c1ccccc1)c1ccccc1", "Measured result": "9.6 µM"}
{"Compound": "CC(N)C12CC3CC(CC(C3)C1)C2 (stereo not shown) [Rimantadine, reference compound]", "Measured result": "0.03 µM"}
{"Compound": "CCCCCCCCCC[Si](C)(C)CCOC1OC(CO)C(O)C(O)C1O (stereo not shown)", "Measured result": "7.38 µM"}
